Data origin, for the record: ChEMBL document CHEMBL4477237

Below, each entry is listed with its recorded pIC50(app).
Biological target: Proteasome subunit beta type-8 (β5i, LMP7) (Homo sapiens)
Experiment: Inhibition of catalytic activity of immunoproteasome 20s subunit beta5 in human Raji cells incubated for 1 hr by BODIPY(TMR)-NC-005-VS probe based competitive activity based protein profiling assay

compound	pIC50(app)
COC1CCC(C[C@H](NC(=O)[C@H](Cc2ccccc2)N=[N+]=[N-])C(=O)N[C@@H](Cc2ccccc2)C(=O)N[C@@H](CC(C)C)C(=O)[C@@]2(C)CO2)CC1 (stereo partly specified)	7.67
CC(C)C[C@H](NC(=O)[C@H](Cc1ccccc1)NC(=O)[C@H](CC1CCC(C2CCCCC2)CC1)NC(=O)[C@H](Cc1ccccc1)N=[N+]=[N-])C(=O)[C@@]1(C)CO1 (stereo partly specified)	6.36
CC(C)C[C@H](NC(=O)[C@H](Cc1ccccc1)NC(=O)[C@H](CC1CCC(C)CC1)NC(=O)[C@H](Cc1ccccc1)N=[N+]=[N-])C(=O)[C@@]1(C)CO1 (stereo partly specified)	7.96
C[C@H](NC(=O)[C@H](Cc1ccccc1)NC(=O)[C@H](CC1CCC(C2CCCCC2)CC1)NC(=O)[C@H](Cc1ccccc1)N=[N+]=[N-])C(=O)[C@@]1(C)CO1 (stereo partly specified)	4.78
COc1ccc(C[C@H](NC(=O)[C@H](Cc2ccccc2)N=[N+]=[N-])C(=O)N[C@@H](Cc2ccccc2)C(=O)N[C@@H](CC(C)C)C(=O)[C@@]2(C)CO2)cc1	8.11
CC(C)C[C@H](NC(=O)[C@H](Cc1ccccc1)NC(=O)[C@H](CCc1ccccc1)NC(=O)[C@H](Cc1ccccc1)N=[N+]=[N-])C(=O)[C@@]1(C)CO1	8.29

###

Target: Proteasome Macropain subunit MB1 (Homo sapiens)
Sequence (P28074 whole entry): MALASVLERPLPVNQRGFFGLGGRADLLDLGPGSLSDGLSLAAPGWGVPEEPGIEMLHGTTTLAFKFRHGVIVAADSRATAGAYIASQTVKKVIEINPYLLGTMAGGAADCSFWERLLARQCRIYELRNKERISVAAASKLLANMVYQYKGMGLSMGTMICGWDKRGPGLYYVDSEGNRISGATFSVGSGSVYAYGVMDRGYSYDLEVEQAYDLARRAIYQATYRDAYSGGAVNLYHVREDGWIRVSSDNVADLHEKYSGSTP
Test: Inhibition of catalytic activity of constitutive proteasome 20s subunit beta5 in human Raji cells incubated for 1 hr by BODIPY(TMR)-NC-005-VS probe based competitive activity based protein profiling assay
Type: cell-based

compound	IC50
CC(C)C[C@H](NC(=O)[C@H](Cc1ccccc1)NC(=O)[C@H](Cc1c[nH]c2ccccc12)NC(=O)[C@H](Cc1ccccc1)N=[N+]=[N-])C(=O)[C@@]1(C)CO1	< 10 nM
C[C@H](NC(=O)[C@H](Cc1ccccc1)NC(=O)[C@H](CC1CCC(C2CCCCC2)CC1)NC(=O)CN1CCOCC1)C(=O)[C@@]1(C)CO1 (stereo partly specified)	1230 nM
CC(C)C[C@H](NC(=O)[C@H](Cc1ccccc1)NC(=O)[C@H](CC1CCCC2CCCCC21)NC(=O)[C@H](Cc1ccccc1)N=[N+]=[N-])C(=O)[C@@]1(C)CO1 (stereo partly specified)	< 10 nM
COc1ccc(C[C@H](NC(=O)[C@H](Cc2cccc3ccccc23)NC(=O)CN2CCOCC2)C(=O)N[C@@H](CC(C)C)C(=O)[C@@]2(C)CO2)cc1	< 10 nM
C[C@H](NC(=O)[C@H](Cc1ccccc1)NC(=O)[C@H](C[C@H]1CC[C@@H](C2CCCCC2)CC1)NC(=O)[C@H](Cc1ccccc1)N=[N+]=[N-])C(=O)[C@@]1(C)CO1	710 nM
CC(C)C[C@H](NC(=O)[C@H](Cc1ccccc1)NC(=O)[C@H](Cc1ccc2ccccc2c1)NC(=O)[C@H](Cc1ccccc1)N=[N+]=[N-])C(=O)[C@@]1(C)CO1	< 10 nM

###

Target: Proteasome Macropain subunit MB1 (Homo sapiens)
Experiment: Inhibition of catalytic activity of constitutive proteasome 20s subunit beta5 in human Raji cells incubated for 1 hr by BODIPY(TMR)-NC-005-VS probe based competitive activity based protein profiling assay
Format: cell-based
The entries below are paired with their reported pIC50(app).

compound	target-or-test-system	pIC50(app)
CC(C)C[C@H](NC(=O)[C@H](Cc1ccccc1)NC(=O)[C@H](CC1CCC(C2CCCCC2)CC1)NC(=O)[C@H](Cc1ccccc1)N=[N+]=[N-])C(=O)[C@@]1(C)CO1 (stereo partly drawn)	Proteasome Macropain subunit MB1 (Homo sapiens)	7.77
C[C@H](NC(=O)[C@H](Cc1ccccc1)NC(=O)[C@H](CC1CCC(C2CCCCC2)CC1)NC(=O)[C@H](Cc1ccccc1)N=[N+]=[N-])C(=O)[C@@]1(C)CO1 (stereo partly drawn)	Proteasome Macropain subunit MB1 (Homo sapiens)	7.13
COc1ccc(C[C@H](NC(=O)[C@H](Cc2ccccc2)N=[N+]=[N-])C(=O)N[C@@H](Cc2ccccc2)C(=O)N[C@@H](CC(C)C)C(=O)[C@@]2(C)CO2)cc1	Proteasome Macropain subunit MB1 (Homo sapiens)	8.68

###

Measured pIC50 values are reported for all entries that follow.
Target: Proteasome Macropain subunit MB1 (Homo sapiens)
Test: Inhibition of catalytic activity of constitutive proteasome 20s subunit beta5 in human Raji cells incubated for 1 hr by BODIPY(TMR)-NC-005-VS probe based competitive activity based protein profiling assay
Type: cell-based
pIC50: −log10 of the molar value.
readout-name: pIC50

C[C@H](NC(=O)[C@H](Cc1ccccc1)NC(=O)[C@H](C[C@H]1CC[C@H](C2CCCCC2)CC1)NC(=O)[C@H](Cc1ccccc1)N=[N+]=[N-])C(=O)[C@@]1(C)CO1 8.31
CC(C)C[C@H](NC(=O)[C@H](Cc1ccccc1)NC(=O)[C@H](CCC1CCCCC1)NC(=O)[C@H](Cc1ccccc1)N=[N+]=[N-])C(=O)[C@@]1(C)CO1 7.44

###

Target: Proteasome subunit beta type-8 (β5i, LMP7) (Homo sapiens)
Experiment: Inhibition of catalytic activity of immunoproteasome 20s subunit beta5 in human Raji cells assessed as residual activity at 0.01 uM incubated for 1 hr by BODIPY(TMR)-NC-005-VS probe based competitive activity based protein profiling assay relative to control
readout-name: Activity (%)

COc1ccc(C[C@H](NC(=O)[C@H](Cc2ccc3ccccc3c2)NC(=O)CN2CCOCC2)C(=O)N[C@@H](CC(C)C)C(=O)[C@@]2(C)CO2)cc1 23
CC(C)C[C@H](NC(=O)[C@H](Cc1ccccc1)NC(=O)[C@@H](NC(=O)[C@H](Cc1ccccc1)N=[N+]=[N-])c1ccccc1)C(=O)[C@@]1(C)CO1 56
CC(C)C[C@H](NC(=O)[C@H](Cc1ccccc1)NC(=O)[C@H](Cc1c[nH]c2ccccc12)NC(=O)[C@H](Cc1ccccc1)N=[N+]=[N-])C(=O)[C@@]1(C)CO1 49
CC(C)C[C@H](NC(=O)[C@H](Cc1ccccc1)NC(=O)[C@H](Cc1cccc2ccccc12)NC(=O)[C@H](Cc1ccccc1)N=[N+]=[N-])C(=O)[C@@]1(C)CO1 28
Cc1ccc(C[C@H](NC(=O)[C@H](Cc2ccccc2)N=[N+]=[N-])C(=O)N[C@@H](Cc2ccccc2)C(=O)N[C@@H](CC(C)C)C(=O)[C@@]2(C)CO2)cc1 15
CC(C)C[C@H](NC(=O)[C@H](Cc1ccccc1)NC(=O)[C@H](Cc1ccc(-c2ccccc2)cc1)NC(=O)[C@H](Cc1ccccc1)N=[N+]=[N-])C(=O)[C@@]1(C)CO1 28
COc1ccc(C[C@H](NC(=O)[C@H](Cc2cccc3ccccc23)NC(=O)CN2CCOCC2)C(=O)N[C@@H](CC(C)C)C(=O)[C@@]2(C)CO2)cc1 36
COc1ccc(C[C@H](NC(=O)[C@H](Cc2ccc(-c3ccccc3)cc2)NC(=O)CN2CCOCC2)C(=O)N[C@@H](CC(C)C)C(=O)[C@@]2(C)CO2)cc1 44
CC(C)C[C@H](NC(=O)[C@H](Cc1ccccc1)NC(=O)[C@H](Cc1ccc2ccccc2c1)NC(=O)[C@H](Cc1ccccc1)N=[N+]=[N-])C(=O)[C@@]1(C)CO1 49

###

Target: Proteasome subunit beta type-9 (β1i, LMP2) (Homo sapiens) (UniProt P28065)
Sequence (P28065 whole entry, looked up): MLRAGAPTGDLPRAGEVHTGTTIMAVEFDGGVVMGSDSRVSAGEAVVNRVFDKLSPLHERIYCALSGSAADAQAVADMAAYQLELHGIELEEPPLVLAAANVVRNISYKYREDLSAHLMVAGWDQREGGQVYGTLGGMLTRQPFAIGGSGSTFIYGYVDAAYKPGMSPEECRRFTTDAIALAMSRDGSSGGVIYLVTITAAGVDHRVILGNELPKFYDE
Assay: Inhibition of catalytic activity of immunoproteasome 20s subunit beta1 in human Raji cells incubated for 1 hr by Cy5-NC-001 probe based competitive activity based protein profiling assay
readout-name: pIC50(app)

molecule	readout-value
C[C@H](NC(=O)[C@H](Cc1ccccc1)NC(=O)[C@H](CC1CCC(C2CCCCC2)CC1)NC(=O)[C@H](Cc1ccccc1)N=[N+]=[N-])C(=O)[C@@]1(C)CO1 (stereo partly drawn)	< 4
CC(C)C[C@H](NC(=O)[C@H](Cc1ccccc1)NC(=O)[C@H](CC1CCC(C2CCCCC2)CC1)NC(=O)[C@H](Cc1ccccc1)N=[N+]=[N-])C(=O)[C@@]1(C)CO1 (stereo partly drawn)	< 4
CC(C)C[C@H](NC(=O)[C@H](Cc1ccccc1)NC(=O)[C@H](CC1CCC(C)CC1)NC(=O)[C@H](Cc1ccccc1)N=[N+]=[N-])C(=O)[C@@]1(C)CO1 (stereo partly drawn)	< 4

###

Let's look at some molecules and their measured pIC50.
Target: Proteasome Macropain subunit MB1 (Homo sapiens)
Experiment: Inhibition of catalytic activity of constitutive proteasome 20s subunit beta5 in human Raji cells incubated for 1 hr by BODIPY(TMR)-NC-005-VS probe based competitive activity based protein profiling assay
Assay type: cell-based
pIC50: −log10 of the molar value.
readout-name: pIC50

COc1ccc(C[C@H](NC(=O)[C@H](Cc2ccc(-c3ccccc3)cc2)NC(=O)CN2CCOCC2)C(=O)N[C@@H](CC(C)C)C(=O)[C@@]2(C)CO2)cc1 > 8.00
CC(C)C[C@H](NC(=O)[C@H](Cc1ccccc1)NC(=O)[C@H](Cc1ccc(-c2ccccc2)cc1)NC(=O)[C@H](Cc1ccccc1)N=[N+]=[N-])C(=O)[C@@]1(C)CO1 > 8.00
CC1=C(C(=O)N[C@H](C)C(=O)N[C@@H](Cc2c[nH]c3ccccc23)C(=O)N[C@@H](CC2CCCCC2)C(=O)[C@@]2(C)CO2)Cc2ccccc21 < 6.00
